systemName: human S1P1 (EDG1) receptor (Homo sapiens, UniProt P21453)
Sequence (P21453 whole entry): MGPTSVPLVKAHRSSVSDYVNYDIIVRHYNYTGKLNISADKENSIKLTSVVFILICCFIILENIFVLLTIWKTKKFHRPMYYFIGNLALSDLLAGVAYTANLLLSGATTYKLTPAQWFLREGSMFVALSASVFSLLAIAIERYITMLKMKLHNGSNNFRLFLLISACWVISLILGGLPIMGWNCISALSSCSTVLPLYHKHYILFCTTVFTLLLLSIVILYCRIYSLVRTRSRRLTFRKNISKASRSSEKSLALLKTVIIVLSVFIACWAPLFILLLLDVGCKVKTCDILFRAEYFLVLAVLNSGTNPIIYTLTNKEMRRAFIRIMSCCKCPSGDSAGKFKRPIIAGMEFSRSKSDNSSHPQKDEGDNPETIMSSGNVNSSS
experimentNotes: S1P1 β-arrestin recruitment (Tango) assay to determine EC50 values
testParameters: Tango-EDG1 bla U2OS cells, 16 h incubation
Text: S1P1 β-Arrestin Recruitment (Tango) Assay to Determine EC50 Values […] To measure the potency and efficacy of compounds as S1P1 (EDG1) receptor agonists, Tango™-EDG1 bla U2OS cells (Invitrogen, USA, Catalog #K1520) are used. […] The amount of β-arrestin recruitment is proportional to the increase in blue fluorescence. […]
observedProperty: EC50 (nM)

Some solved cases for reference:
molecule | resultUnit | valueObserved
CCc1cc(-c2noc(-c3cc(OC)nc(C4CCCC4)c3)n2)cc(C)c1OC[C@@H](O)CN(C)CC(=O)O | nM | 0.2
CCc1cc(-c2noc(-c3cc(OC)nc(C4CCCC4)c3)n2)cc(C)c1OC[C@@H](O)CNC(=O)CCC(=O)O | nM | 0.02

a = CCc1cc(-c2nc(-c3cc(OC)nc(C4CCCC4)c3)no2)cc(C)c1OCCCNCC(=O)O
b = COc1cc(-c2nc(-c3cc(C)c(OCC(=O)NCCO)c(Cl)c3)no2)cc(C2CCCC2)n1
Identify the entry with the larger EC50. Options: a and b # answer = label of selected item a

a = CCc1cc(-c2noc(-c3cc(OC)nc(C4CCCC4)c3)n2)cc(C)c1OCCNC(CO)CO
b = COc1cc(-c2nc(-c3cc(C)c(OCCCC(=O)O)c(Cl)c3)no2)cc(C2CCCC2)n1
c = COc1cc(-c2nc(-c3cc(Cl)c(OCCNCCC(=O)O)c(OC)c3)no2)cc(C2CCCC2)n1
d = COc1cc(-c2nc(-c3cc(C)c(OCC(=O)O)c(Cl)c3)no2)cc(C2CCCC2)n1
e = CCc1cc(-c2nc(-c3cc(OC)nc(C4CCCC4)c3)no2)cc(C)c1OCCNCC(=O)O
Rank order required: EC50, descending. Answer format: list of labels, ordered as asked. a, d, c, e, b
(a: 4.23 nM, d: 1.1 nM, c: 0.2 nM, e: 0.1 nM, b: 0.05 nM)

1 = CCc1cc(-c2noc(-c3cc(OC)nc(C4CCCC4)c3)n2)cc(C)c1OCCN(C)CC(=O)O
2 = CCc1cc(-c2noc(-c3cc(OC)nc(C4CCCC4)c3)n2)cc(C)c1OCCCNCCC(=O)O
Identify the item whose EC50 is the smaller number: 1 or 2 # answer = label of selected item 1
(1: 0.2 nM, 2: 0.4 nM)

I = CCc1cc(-c2noc(-c3cc(OC)nc(C4CCCC4)c3)n2)cc(C)c1OCCN1CC(C(=O)O)C1
II = CCc1cc(-c2noc(-c3cc(OC)nc(C4CCCC4)c3)n2)cc(C)c1OCC(=O)O
Identify the item whose EC50 is the smaller number: I or II # answer = label of selected item I
